Test system: DU-145
Assay: Anticancer activity against human DU145 cells assessed as growth inhibition at 50 uM after 48 hrs by SRB assay
Format: functional
Details: DU-145, 48 h, read-out: GI

| molecule | tested_system | inhibition of growth at 50 µM / % |
| --- | --- | --- |
| CCCC(=O)O[C@H]1CC[C@@]2(C)[C@@H](CC[C@]3(C)[C@@H]2CC=C2[C@@H]4[C@@H](C)[C@H](C)CC[C@]4(C)CC[C@]23C)[C@@]1(C)C(=O)O | DU-145 | 89 |
| C[C@H]1[C@H](C)CC[C@]2(C)CC[C@]3(C)C(=CC[C@@H]4[C@@]5(C)CC[C@H](O)[C@](C)(C(=O)O)[C@@H]5CC[C@]43C)[C@H]12 | DU-145 | 89 |
| COc1cccc2c1C(=O)c1c(O)c3c(c(O)c1C2=O)C[C@@](O)(C(=O)CO)C[C@@H]3O[C@H]1C[C@H](N)[C@H](O)[C@H](C)O1 [DOXORUBICIN] | DU-145 | 90 |
| COC(=O)[C@@]1(C)C(=O)CC[C@]2(C)[C@H]3CC=C4[C@@H]5[C@@H](C)[C@H](C)CC[C@]5(C)CC[C@@]4(C)[C@]3(C)CC[C@@H]12 | DU-145 | 50 |

---

Test system: DU-145
Assay: Anticancer activity against human DU145 cells assessed as growth inhibition at 50 uM after 48 hrs by SRB assay
Type: functional
Details: DU-145, 48 h, read-out: GI
parameter: inhibition of growth at 50 µM (%)

| molecular_string | parameter | units_label | observed_result |
| --- | --- | --- | --- |
| CCC(=O)O[C@H]1CC[C@@]2(C)[C@@H](CC[C@]3(C)[C@@H]2C(=O)C=C2[C@@H]4[C@@H](C)[C@H](C)CC[C@]4(C)CC[C@]23C)[C@@]1(C)C(=O)O | inhibition of growth at 50 µM | % | 89 |
| CCCC(=O)O[C@@H]1CC[C@@]2(C)[C@@H](CC[C@]3(C)[C@@H]2CC=C2[C@@H]4[C@@H](C)[C@H](C)CC[C@]4(C)CC[C@]23C)[C@@]1(C)C(=O)O | inhibition of growth at 50 µM | % | 89 |
| CCCC(=O)O[C@H]1CC[C@@]2(C)[C@@H](CC[C@]3(C)[C@@H]2C(=O)C=C2[C@@H]4[C@@H](C)[C@H](C)CC[C@]4(C)CC[C@]23C)[C@@]1(C)C(=O)O | inhibition of growth at 50 µM | % | 92 |
| CCC(=O)O[C@@H]1CC[C@@]2(C)[C@@H](CC[C@]3(C)[C@@H]2CC=C2[C@@H]4[C@@H](C)[C@H](C)CC[C@]4(C)CC[C@]23C)[C@@]1(C)C(=O)O | inhibition of growth at 50 µM | % | 91 |
| C[C@H]1[C@H](C)CC[C@]2(C)CC[C@]3(C)C(=CC[C@@H]4[C@@]5(C)CC[C@@H](O)[C@](C)(C(=O)O)[C@@H]5CC[C@]43C)[C@H]12 | inhibition of growth at 50 µM | % | 92 |

---

Readings of inhibition of growth at 50 µM for the listed compounds
Test system: HT-29
Assay: Anticancer activity against human HT-29 cells assessed as growth inhibition at 50 uM after 48 hrs by SRB assay
Assay type: functional
Conditions: HT-29, 48 h, read-out: GI
parameter: inhibition of growth at 50 µM

| molecular_string | observed_result |
| --- | --- |
| C[C@H]1[C@H](C)CC[C@]2(C)CC[C@]3(C)C(=CC[C@@H]4[C@@]5(C)CC[C@H](OC(=O)CCC(=O)O)[C@](C)(C(=O)O)[C@@H]5CC[C@]43C)[C@H]12 | 13% |
| CCCC(=O)O[C@H]1CC[C@@]2(C)[C@@H](CC[C@]3(C)[C@@H]2C(=O)C=C2[C@@H]4[C@@H](C)[C@H](C)CC[C@]4(C)CC[C@]23C)[C@@]1(C)C(=O)O | 62% |
| C[C@H]1[C@H](C)CC[C@]2(C)CC[C@]3(C)C(=CC[C@@H]4[C@@]5(C)CC[C@@H](OC(=O)CCC(=O)O)[C@](C)(C(=O)O)[C@@H]5CC[C@]43C)[C@H]12 | 72% |
| O=c1[nH]cc(F)c(=O)[nH]1 | 41% |

---

Test system: HT-29
Experiment: Anticancer activity against human HT-29 cells assessed as growth inhibition at 50 uM after 48 hrs by SRB assay
Assay type: functional
Conditions: HT-29, 48 h, read-out: GI
parameter: inhibition of growth at 50 µM

| molecular_string | observed_result |
| --- | --- |
| CCCC(=O)O[C@@H]1CC[C@@]2(C)[C@@H](CC[C@]3(C)[C@@H]2CC=C2[C@@H]4[C@@H](C)[C@H](C)CC[C@]4(C)CC[C@]23C)[C@@]1(C)C(=O)O | 95% |
| COC(=O)[C@@]1(C)C(=O)CC[C@]2(C)[C@H]3C(=O)C=C4[C@@H]5[C@@H](C)[C@H](C)CC[C@]5(C)CC[C@@]4(C)[C@]3(C)CC[C@@H]12 | 17% |
| C[C@H]1[C@H](C)CC[C@]2(C)CC[C@]3(C)C(=CC[C@@H]4[C@@]5(C)CC[C@H](O)[C@](C)(C(=O)O)[C@@H]5CC[C@]43C)[C@H]12 | 70% |
| C[C@H]1[C@H](C)CC[C@]2(C)CC[C@]3(C)C(=CC[C@@H]4[C@@]5(C)CC[C@@H](OC=O)[C@](C)(C(=O)O)[C@@H]5CC[C@]43C)[C@H]12 | 76% |

---

Tested on: HEp-2
Assay: Anticancer activity against human Hep2 cells assessed as growth inhibition at 50 uM after 48 hrs by SRB assay
Format: functional
Conditions: HEp-2, 48 h, read-out: GI

| molecular_string | inhibition of growth at 50 µM |
| --- | --- |
| CCC(=O)O[C@@H]1CC[C@@]2(C)[C@@H](CC[C@]3(C)[C@@H]2C(=O)C=C2[C@@H]4[C@@H](C)[C@H](C)CC[C@]4(C)CC[C@]23C)[C@@]1(C)C(=O)O | 69% |
| COC(=O)[C@]1(C)[C@@H]2CC[C@]3(C)[C@H](CC=C4[C@@H]5[C@@H](C)[C@H](C)CC[C@]5(C)CC[C@]43C)[C@@]2(C)CC[C@@H]1O | 0% |
| C[C@H]1[C@H](C)CC[C@]2(C)CC[C@]3(C)C(=CC[C@@H]4[C@@]5(C)CC[C@@H](OC(=O)CCC(=O)O)[C@](C)(C(=O)O)[C@@H]5CC[C@]43C)[C@H]12 | 55% |
| CCC(=O)O[C@H]1CC[C@@]2(C)[C@@H](CC[C@]3(C)[C@@H]2CC=C2[C@@H]4[C@@H](C)[C@H](C)CC[C@]4(C)CC[C@]23C)[C@@]1(C)C(=O)O | 87% |

Hello, the source for this data is ChEMBL document CHEMBL1932969, in case you need it.
